# System: Streptococcus pyogenes
# protocol text: Antibacterial activity against erythromycin-resistant Streptococcus pyogenes 01-533 by broth microdilution method
# Type: functional
Parameter: MIC. Scope: all listed entries.
All answers are understood in µg/mL, so give the number only.

See these solved cases before continuing.
CC[C@H]1OC(=O)[C@H](C)C(=O)[C@H](C)[C@@H](O[C@@H]2O[C@H](C)C[C@H](N(C)C)[C@H]2O)[C@@](C)(OC)C[C@@H](C)C(=O)[C@H](C)[C@H]2N(CCCSc3nccs3)C(=O)O[C@]12C	0.5
CC[C@H]1OC(=O)[C@H](C)C(=O)[C@H](C)[C@@H](O[C@@H]2O[C@H](C)C[C@H](N(C)C)[C@H]2O)[C@@](C)(OC)C[C@@H](C)C(=O)[C@H](C)[C@H]2N(CCCSc3nc(C)cc(C)n3)C(=O)O[C@]12C	2
CC[C@H]1OC(=O)[C@H](C)C(=O)[C@H](C)[C@@H](O[C@@H]2O[C@H](C)C[C@H](N(C)C)[C@H]2O)[C@@](C)(OC)C[C@@H](C)C(=O)/C(C)=C/[C@]1(C)OC(=O)NCCCSc1ncnc2[nH]ncc12	8
CC[C@H]1OC(=O)[C@H](C)C(=O)[C@H](C)[C@@H](O[C@@H]2O[C@H](C)C[C@H](N(C)C)[C@H]2O)[C@@](C)(OC)C[C@@H](C)C(=O)[C@H](C)[C@H]2N(CCCSc3nnnn3-c3ccccc3)C(=O)O[C@]12C	2

Now look at this one.
Give the reported MIC for this compound. CC[C@H]1OC(=O)[C@H](C)C(=O)[C@H](C)[C@@H](O[C@@H]2O[C@H](C)C[C@H](N(C)C)[C@H]2O)[C@@](C)(OC)C[C@@H](C)C(=O)[C@H](C)[C@H]2N(CCCSc3nccc(C)n3)C(=O)O[C@]12C
2

----------
# System: Staphylococcus epidermidis
# protocol text: Antibacterial activity against methicillin-susceptible Staphylococcus epidermidis 07T202 by broth microdilution method
# Assay type: functional
Parameter: MIC. Scope: all listed entries.

CC[C@H]1OC(=O)[C@H](C)C(=O)[C@H](C)[C@@H](O[C@@H]2O[C@H](C)C[C@H](N(C)C)[C@H]2O)[C@@](C)(OC)C[C@@H](C)C(=O)/C(C)=C/[C@]1(C)OC(=O)NCCCSc1nc2ccccc2o1	> 16 mg/L
CC[C@H]1OC(=O)[C@H](C)C(=O)[C@H](C)[C@@H](O[C@@H]2O[C@H](C)C[C@H](N(C)C)[C@H]2O)[C@@](C)(OC)C[C@@H](C)C(=O)[C@H](C)[C@H]2N(CCCSc3nnnn3C)C(=O)O[C@]12C	> 32 mg/L
CC[C@H]1OC(=O)[C@H](C)C(=O)[C@H](C)[C@@H](O[C@@H]2O[C@H](C)C[C@H](N(C)C)[C@H]2O)[C@@](C)(OC)C[C@@H](C)C(=O)/C(C)=C/[C@]1(C)OC(=O)NCCCSc1ncnc2[nH]ncc12	> 16 mg/L

Give the reported MIC for this compound. CCCc1cnc(SCCCN2C(=O)O[C@]3(C)[C@@H](CC)OC(=O)[C@H](C)C(=O)[C@H](C)[C@@H](O[C@@H]4O[C@H](C)C[C@H](N(C)C)[C@H]4O)[C@@](C)(OC)C[C@@H](C)C(=O)[C@H](C)[C@@H]23)nc1
> 16 mg/L

----------
Parameter: MIC. Scope: all listed entries.
# Tested on: Staphylococcus epidermidis
# protocol text: Antibacterial activity against methicillin-resistant Staphylococcus epidermidis 07A066 by broth microdilution method
# Type: functional
All answers are understood in µg/mL, so give the number only.

See these solved cases before continuing.
CC[C@H]1OC(=O)[C@H](C)C(=O)[C@H](C)[C@@H](O[C@@H]2O[C@H](C)C[C@H](N(C)C)[C@H]2O)[C@@](C)(OC)C[C@@H](C)C(=O)[C@H](C)[C@H]2N(CCCSc3nc(-c4ccccc4)cs3)C(=O)O[C@]12C	0.5
CC[C@H]1OC(=O)[C@H](C)C(=O)[C@H](C)[C@@H](O[C@@H]2O[C@H](C)C[C@H](N(C)C)[C@H]2O)[C@@](C)(OC)C[C@@H](C)C(=O)[C@H](C)[C@H]2N(CCCSc3nc(-c4ccccc4)c(-c4ccccc4)o3)C(=O)O[C@]12C	2
CC[C@H]1OC(=O)[C@H](C)C(=O)[C@H](C)[C@@H](O[C@@H]2O[C@H](C)C[C@H](N(C)C)[C@H]2O)[C@@](C)(OC)C[C@@H](C)C(=O)[C@H](C)[C@H]2N(CCCSc3nccs3)C(=O)O[C@]12C	0.125
CC[C@H]1OC(=O)[C@H](C)C(=O)[C@H](C)[C@@H](O[C@@H]2O[C@H](C)C[C@H](N(C)C)[C@H]2O)[C@@](C)(OC)C[C@@H](C)C(=O)/C(C)=C/[C@]1(C)OC(=O)NCCCSc1nc2cc([N+](=O)[O-])ccc2[nH]1	1

State the measured MIC (Staphylococcus epidermidis) of CC[C@H]1OC(=O)[C@H](C)C(=O)[C@H](C)[C@@H](O[C@@H]2O[C@H](C)C[C@H](N(C)C)[C@H]2O)[C@@](C)(OC)C[C@@H](C)C(=O)[C@H](C)[C@H]2N(CCCSc3ccccn3)C(=O)O[C@]12C
0.125

State the measured MIC (Staphylococcus epidermidis) of CC[C@H]1OC(=O)[C@H](C)C(=O)[C@H](C)[C@@H](O[C@@H]2O[C@H](C)C[C@H](N(C)C)[C@H]2O)[C@@](C)(OC)C[C@@H](C)C(=O)/C(C)=C/[C@]1(C)OC(=O)NCCCSc1nc2ccccc2o1
4

State the measured MIC (Staphylococcus epidermidis) of CC[C@H]1OC(=O)[C@H](C)C(=O)[C@H](C)[C@@H](O[C@@H]2O[C@H](C)C[C@H](N(C)C)[C@H]2O)[C@](C)(OC)C[C@@H](C)C(=O)[C@H](C)[C@H]2N(CCCCn3cnc(-c4cccnc4)c3)C(=O)O[C@]12C
0.125

State the measured MIC (Staphylococcus epidermidis) of CC[C@H]1OC(=O)[C@H](C)C(=O)[C@H](C)[C@@H](O[C@@H]2O[C@H](C)C[C@H](N(C)C)[C@H]2O)[C@@](C)(OC)C[C@@H](C)C(=O)[C@H](C)[C@H]2N(CCCSc3nc4ccccc4[nH]3)C(=O)O[C@]12C
0.125

----------
# Test system: Streptococcus pyogenes
# protocol text: Antibacterial activity against erythromycin-resistant Streptococcus pyogenes 01-533 by broth microdilution method
# Format: functional
Parameter: MIC. Scope: all listed entries.
All answers are understood in µg/mL, so give the number only.

See these solved cases before continuing.
CC[C@H]1OC(=O)[C@H](C)C(=O)[C@H](C)[C@@H](O[C@@H]2O[C@H](C)C[C@H](N(C)C)[C@H]2O)[C@](C)(OC)C[C@@H](C)C(=O)[C@H](C)[C@H]2N(CCCCn3cnc(-c4cccnc4)c3)C(=O)O[C@]12C [TELITHROMYCIN]	0.25
CC[C@H]1OC(=O)[C@H](C)C(=O)[C@H](C)[C@@H](O[C@@H]2O[C@H](C)C[C@H](N(C)C)[C@H]2O)[C@@](C)(OC)C[C@@H](C)C(=O)[C@H](C)[C@H]2N(CCCSc3nnnn3C)C(=O)O[C@]12C	1
CC[C@H]1OC(=O)[C@H](C)[C@@H](O[C@H]2C[C@@](C)(OC)[C@@H](O)[C@H](C)O2)[C@H](C)[C@@H](O[C@@H]2O[C@H](C)C[C@H](N(C)C)[C@H]2O)[C@](C)(OC)C[C@@H](C)C(=O)[C@H](C)[C@@H](O)[C@]1(C)O [CLARITHROMYCIN]	2

Now look at this one.
State the measured MIC (Streptococcus pyogenes) of CC[C@H]1OC(=O)[C@H](C)C(=O)[C@H](C)[C@@H](O[C@@H]2O[C@H](C)C[C@H](N(C)C)[C@H]2O)[C@@](C)(OC)C[C@@H](C)C(=O)[C@H](C)[C@H]2N(CCCSc3ccoc3C)C(=O)O[C@]12C
0.5

----------
# Tested on: Streptococcus pneumoniae
# protocol text: Antibacterial activity against erythromycin-susceptible Streptococcus pneumoniae ATCC 49619 by broth microdilution method
# Format: functional
readout kind: MIC (µg/mL)
All answers are understood in µg/mL, so give the number only.

CCCc1cnc(SCCCN2C(=O)O[C@]3(C)[C@@H](CC)OC(=O)[C@H](C)C(=O)[C@H](C)[C@@H](O[C@@H]4O[C@H](C)C[C@H](N(C)C)[C@H]4O)[C@@](C)(OC)C[C@@H](C)C(=O)[C@H](C)[C@@H]23)nc1	0.125
CC[C@H]1OC(=O)[C@H](C)C(=O)[C@H](C)[C@@H](O[C@@H]2O[C@H](C)C[C@H](N(C)C)[C@H]2O)[C@@](C)(OC)C[C@@H](C)C(=O)/C(C)=C/[C@]1(C)OC(=O)NCCCSc1ncnc2[nH]ncc12	0.5
CC[C@H]1OC(=O)[C@H](C)C(=O)[C@H](C)[C@@H](O[C@@H]2O[C@H](C)C[C@H](N(C)C)[C@H]2O)[C@@](C)(OC)C[C@@H](C)C(=O)/C(C)=C/[C@]1(C)OC(=O)NCCCSc1nc2ccccc2o1	2
CC[C@H]1OC(=O)[C@H](C)C(=O)[C@H](C)[C@@H](O[C@@H]2O[C@H](C)C[C@H](N(C)C)[C@H]2O)[C@@](C)(OC)C[C@@H](C)C(=O)/C(C)=C/[C@]1(C)OC(=O)NCCCSc1nc2cc([N+](=O)[O-])ccc2[nH]1	0.125
CC[C@H]1OC(=O)[C@H](C)C(=O)[C@H](C)[C@@H](O[C@@H]2O[C@H](C)C[C@H](N(C)C)[C@H]2O)[C@@](C)(OC)C[C@@H](C)C(=O)[C@H](C)[C@H]2N(CCCSc3ccoc3C)C(=O)O[C@]12C	0.031
CC[C@H]1OC(=O)[C@H](C)C(=O)[C@H](C)[C@@H](O[C@@H]2O[C@H](C)C[C@H](N(C)C)[C@H]2O)[C@@](C)(OC)C[C@@H](C)C(=O)[C@H](C)[C@H]2N(CCCSc3nc(-c4cccnc4)c[nH]3)C(=O)O[C@]12C	0.062
CC[C@H]1OC(=O)[C@H](C)C(=O)[C@H](C)[C@@H](O[C@@H]2O[C@H](C)C[C@H](N(C)C)[C@H]2O)[C@@](C)(OC)C[C@@H](C)C(=O)[C@H](C)[C@H]2N(CCCSc3ccccn3)C(=O)O[C@]12C	0.016

Now look at this one.
Give the reported MIC for this molecule. CC[C@H]1OC(=O)[C@H](C)C(=O)[C@H](C)[C@@H](O[C@@H]2O[C@H](C)C[C@H](N(C)C)[C@H]2O)[C@@](C)(OC)C[C@@H](C)C(=O)[C@H](C)[C@H]2N(CCCSc3nc4ccccc4[nH]3)C(=O)O[C@]12C
0.016
